Tested on: KM12 colon
assayProtocol: NCI-60 one-dose screen, 48 h (100 = growth as untreated, 0 = no growth, -100 = all killed)
conditionSet: 10 µM unless noted
Compounds without any hit were thinned out: in the full panel of roughly 83,000, 20% have a hit.
Classify by measured growth: TRUE if it is equal to or exceeds 20%, FALSE if it is smaller.

> print(dat)
                                    molecule  qualitativelabel
 1  CCN1CCN(c2cc(C)nc(N(CCNc3ccnc4cc(Cl)ccc34)Cc3ccc4c(c3)OCO4)n2)CC1             FALSE
 2  CN1CCN(C(=O)[C@@]2(C)CC[C@]3(C)CC[C@]4(C)C(=CC[C@@H]5[C@@]6(C)CCC(=O)NC(C)(C)[C@@H]6CC[C@]54C)[C@@H]3C2)CC1              TRUE
 3  CCSc1oc(C)nc1[P+](c1ccccc1)(c1ccccc1)c1ccccc1             FALSE
 4  Nc1nc2c(c3ncccc13)C(c1cccc(Cl)c1)Cc1ncccc1-2 (stereo not drawn)             FALSE
 5  CC(=O)ON1CCCC(P(=O)(OCCSC(=O)C(C)(C)C)OCCSC(=O)C(C)(C)C)C1=O (stereo not drawn)             FALSE
 6      Fc1ccc(Cn2cc(CSc3nc4ccccc4o3)nn2)cc1              TRUE
 7  CC1=CCC(OC(=O)C(C)(C)CC(O)(C(C)O)C(O)C2(C)C=CC(Cc3ccc(C(C)C)cc3)(C(C)C)CC2)(C(C)C)CC1 (stereo not drawn)              TRUE
 8   Nc1ccc(-c2csc(-n3[nH]c(=O)ccc3=O)n2)cc1              TRUE
 9  Nc1c(C(=O)Nc2cccc(Cl)c2)sc2nc3c(cc12)CCCC3              TRUE
10  COc1ccc(C(=O)Cn2c(C(=O)c3ccc(OC)cc3)nc3ccccc32)cc1              TRUE
11  COC(=O)CCC/C=C\C[C@H]1C=CC(=O)/C1=C/C[C@@H](O)C/C=C\CC(F)(F)F             FALSE
12  Cc1cc(Nc2ccc(C(=O)N3CCCC3)cc2)nc(NCCCNc2ccnc3cc(Cl)ccc23)n1              TRUE
13  Nc1[nH]c(=S)nc2oc(-c3ccccc3)c(-c3ccccc3)c12              TRUE

====

Tested on: CCRF-CEM leukemia
assayProtocol: NCI-60 one-dose screen, 48 h (100 = growth as untreated, 0 = no growth, -100 = all killed)
conditionSet: 10 µM unless noted
The panel holds about 83,000 compounds, 20% with a hit somewhere; the sample as a whole holds those more often.
Classify by measured growth: y if it is equal to or exceeds 30%, n if it is smaller.

> print(dat)
                                   molecule  qualitativelabel
1  C=C(C)[C@@H]1CC[C@]2(C)[C@H](CC=C3[C@@H]4CC(C)(C)CC[C@]4(CO)CC[C@]32C)[C@@]1(C)CCCN                 n
2  CN(CCCNC(=O)Cc1ccc2ccc3cccc4ccc1c2c34)CCCNc1cc(-c2ccc3ccccc3c2)nc2ccccc12                 n
3  COc1ccc2c(c1)c(/C(O)=C1\COC(=O)C1=O)cn2Cc1ccc(F)cc1                 y
4  O=S(=O)(NCCNc1nccc(-c2c(-c3cccc(O)c3)nc3occn23)n1)c1ccc(Br)cc1                 n
5  COC1=C(C)C(=O)N2[C@@H]1[C@H](c1ccccc1)OC21C=CC(=O)C=C1                 n
6  CN(C)CCCC1(c2ccc(F)cc2)OCc2cc(-c3ccc4cc[nH]c4c3)ccc21 (centres undefined)                 y
7  CCCC(CC)(C(=O)Nc1ccc2nc(C)cc(N)c2c1)C(=O)Nc1ccc2nc(C)cc(N)c2c1                 y
8  C=CCN1C(=O)c2cccc3c(N4CCOCC4)ccc(c23)C1=O                 n
9  Cc1ccnc(Nc2ccc([N+](=O)[O-])c(NCCN3CCOCC3)n2)c1                 n

====

System: HS 578T breast
assayProtocol: NCI-60 one-dose screen, 48 h
conditionSet: 10 µM unless noted
Compounds without any hit were thinned out: in the full panel of roughly 83,000, 20% have a hit. Active and inactive are the calls of the source. Rule for the calls: active = growth percent below 10; inactive = the rest.
Labels: active, inactive

> print(dat)
                                    compound  qualitativelabel
 1  Cc1nc2c(=O)nc3s/c(=C\c4ccco4)c(=O)n3c2nc1C            active
 2  Cc1ccc2nc(/C(C#N)=C(/CCCO)NC(Cc3ccccc3)C(=O)OCc3ccccc3)[nH]c(=O)c2c1 (stereo not drawn)          inactive
 3  COc1ccc(-c2n[nH]c(=O)c3nc(NC(=S)Nc4ccc(Oc5ccccc5)cc4)sc23)cc1          inactive
 4  O=C(NC1CC(F)C1)c1cc2cccnc2n1-c1ccc(Cl)c(Cl)c1 (stereo not drawn)          inactive
 5    Cc1ccc(-c2nc(-c3cn(C)c4ncccc34)cs2)cc1          inactive
 6  COc1cc(-c2nc3sccn3c2-c2ccnc(NCCNS(=O)(=O)c3ccc(Cl)cc3)n2)ccc1F          inactive
 7  Clc1ccc(-c2cc(-c3ccccc3)nc(NCCNc3ccnc4cc(Cl)ccc34)n2)cc1            active
 8  CN(Cc1cc(Br)cc(Br)c1O)Cc1cc(Br)cc(Br)c1O          inactive
 9  CCN1CCN(CCNc2nccc(-c3c(-c4ccc(F)c(OC)c4)nc4sccn34)n2)S1(=O)=O          inactive
10  COc1ccc(C(=O)Cn2c(C(=O)c3ccc(OC)cc3)nc3ccccc32)cc1            active
11  CCOC(=O)CC1CSC(Nc2ccccc2)=N1 (stereo not drawn)          inactive
12  CC(C)(C)n1cc(-c2ccnc(NCCCNS(=O)(=O)c3cccc4ccccc34)c2)c(-c2cccc(F)c2)n1          inactive
13  C=C(CNCCc1ccc(O)cc1)[C@@H]1CC[C@]2(CO)CC[C@]3(C)[C@H](CC[C@@H]4[C@@]5(C)CCC(=O)C(C)(C)[C@@H]5CC[C@]43C)[C@@H]12          inactive
14  Cn1cc(-c2csc(-c3c[nH]c4ccc(F)cc34)n2)c2ccnc(Cl)c21          inactive
15  COc1ccc(Oc2nc(Nc3ccc(N4CCOCC4)cc3)ncc2NC(=O)Nc2cc(OC)cc(OC)c2)cc1          inactive
16  CCNC(=O)Oc1ccc(/C(=C(/C)Cc2ccc(OC)cc2)c2ccc(OCCN3CCCCC3)cc2)cc1          inactive
17  Cc1nc2ccccc2c(/C=C/c2ccccc2)c1C(=O)/C=C/c1ccccc1          inactive
18  O=C1/C(=C/c2ccccc2F)CN(C(=O)C(Cl)Cl)C/C1=C\c1ccccc1F            active
19  C=C(C)[C@@H]1CCC[C@]2(C(=O)O)CC[C@]3(C)[C@@H](CC[C@@H]4[C@@]5(C)C/C(=C/c6ccncc6)C(=O)C(C)(C)[C@@H]5CC[C@]43C)[C@@H]12          inactive
20  CCCCCCCCCCCCCCCCCC1=NC(C)(C)CN1CC(C)O (stereo not drawn)          inactive
21  COc1cccc(-c2cc(-c3cccc(Cl)c3)c(C#N)c(=O)[nH]2)c1          inactive
22  COc1ccc2nc(Cl)c(/C=C3\CC(c4ccccc4)=NN(c4ccccc4)C3=O)cc2c1          inactive
23  Clc1c(Cl)[n+](Cc2ccc3ccccc3c2)cn1Cc1ccc2ccccc2c1          inactive
24  CC1(C)OB(O)c2cc(-c3nc4ccc5[nH]ncc5c4c4c3CCCC4)ccc21          inactive
25  COc1ccc(C(=O)/C=C/c2ccc(N3CCCCC3)cc2)cc1OC          inactive
26  Cn1cc(-c2ccc(-c3cn(C)c4ccc(Cl)cc34)[nH]2)c2cc(Cl)ccc21            active
27  O=C1/C=C/[C@@H](O)[C@@H]2C[C@@H](O)C[C@H]2/C=C/CCC[C@@H](O)CCO1          inactive
28    CCOC(=O)c1c(C)nc2ccccc2c1/C=C/c1ccccc1          inactive
29  CCN1C2CCC1/C(=C\c1ccc(F)cc1)C(=O)/C2=C/c1ccc(F)cc1          inactive
30        O=C(Nc1ncccc1OCc1ccccc1)NC1CCCCCC1          inactive
31  CCO/C=N/C1=C(C#N)C(c2ccc(F)cc2)c2sc3c(F)cccc3c2O1 (stereo not drawn)          inactive
32  CCN1CCN(c2cc(C)nc(N(CCNc3ccnc4cc(Cl)ccc34)Cc3ccc4c(c3)OCO4)n2)CC1          inactive
33  CNC(=O)c1cc(Oc2cccc3nc(NC(=O)Nc4cc(C(F)(F)F)ccc4Cl)ccc23)ccn1          inactive
34  COc1ccc(CCN2C(=O)/C(=C/c3ccc(C4Oc5ccccc5C5CC(c6ccccc6)=NN54)cc3)SC2=S)cc1 (stereo not drawn)          inactive
35  COc1ccc2c(c1)c(-c1nc(-c3c[nH]c4ncccc34)cs1)cn2CCO          inactive
36  O=C(O)[C@@H](Cc1ccc2ccccc2c1)NC(=O)n1c2ccccc2c2ccccc21          inactive
37  CN1CCN(C(=O)C(C)(C)c2ccc(C(=O)Nc3cn4cc(-c5ccncc5)ccc4n3)cc2)CC1            active
38  Cc1ccc(Cl)cc1NC(=O)c1sc2nc3c(cc2c1N)C(=O)CCC3          inactive
